- Tested on: Meloidogyne incognita
- assay_text: Nematicidal activity against Meloidogyne incognita J2 (root-knot nematode) larvae immersed in compound solution for 24 hr assessed as reduction in larval motility
- Assay type: functional, organism-based
EC50 overview
Supply the numeric figure in µg/mL, leaving out any unit text.

Guide cases for EC50, answers given:
Query :: Check the records and state EC50 for CC(C)=CCC/C(C)=C/CO
Result :: 237

Query :: For the compound CC(C)=C1CC[C@@H](C)CC1=O , give its measured EC50 value.
Result :: 150

Query :: Provide measured EC50 value, entry: CC1=CCC(O)(C(C)C)CC1 (stereo unspecified)
Result :: 392

Query compound follows.
Query :: Specify reported EC50 for the compound shown: Cc1ccc(C(C)C)c(O)c1
Result :: 390

====

- Test system: Meloidogyne incognita
- assay_text: Nematicidal activity against Meloidogyne incognita J2 (root-knot nematode) larvae immersed in compound solution for 24 hr assessed as reduction in larval motility
- Format: functional, organism-based
EC50 less than 200 µg/mL is true (1); EC50 greater than or equal to 200 µg/mL is false (0).

Query :: I'd appreciate it if you could check whether C/C=C/c1ccc(OC)cc1 has EC50 smaller than 200 µg/mL.
Result :: true (1)

Query :: Strictly below 200 µg/mL: is that where EC50 of C=C(C)[C@@H]1CC=C(C)C(=O)C1 sits?
Result :: true (1)

New cases:
Query :: is_below(EC50, 200 µg/mL) for Cc1ccc(C(C)C)cc1 ?
Result :: false (0)

Query :: Strictly below 200 µg/mL in EC50? C=C(C)[C@H]1CC=C(C)CC1
Result :: false (0)

Query :: Lab note: confirm whether the reported EC50 for this molecule is below 200 µg/mL, equality not counting. molecule: Cc1ccc(C(C)C)cc1O
Result :: false (0)

Query :: is_below(EC50, 200 µg/mL) for C=CCc1ccc(O)c(OC)c1 ?
Result :: false (0)

Query :: Does C=CC(C)(O)CCC=C(C)C (configuration not stated) have EC50 strictly under 200 µg/mL?
Result :: false (0)
